Tested on: U2OS
Assay: Multiplex assay against U2OS
Format: toxicity, cell-based
Settings: human, 12 h, 1 µM, compound concentration 1 uM, replicate 1
Assign labels as follows, please: 1.0 for Population Apoptotic (%) below 40%; 0.0 for Population Apoptotic (%) equal to or exceeding 40%.

These recorded examples may help you get a feel for the data.
compound: C=C1/C(=C\C=C2/CCC[C@]3(C)[C@@H]([C@H](C)/C=C/[C@H](C)C(C)C)CC[C@@H]23)C[C@@H](O)C[C@@H]1O [DOXERCALCIFEROL]
category-label: 1.0
//
compound: CCCn1c(=O)c2[nH]c(-c3cnn(Cc4cccc(C(F)(F)F)c4)c3)nc2n(CC)c1=O [GS 6201]
category-label: 1.0
//
compound: CNC(=O)c1ccc(Nc2nc(OC3CCCC3)c3c(-c4ccc5nc(C)oc5c4)c[nH]c3n2)c(OC)c1
category-label: 1.0
//
compound: COC(=N)c1nc2ccc3ncnc(Nc4ccc(OC)cc4F)c3c2s1
category-label: 1.0
//
compound: O=C(Nc1cccnn1)N1CCC(=Cc2cccc(Oc3ccc(C(F)(F)F)cn3)c2)CC1
category-label: 1.0

Query string: Criterion: Population Apoptotic (%) strictly below 40%. Is it met by C=CCn1c(=O)c2cnc(Nc3ccc(N4CCN(C)CC4)cc3)nc2n1-c1cccc(C(C)(C)O)n1 [ADAVOSERTIB] ?
Result string: 0.0

Query string: Does COc1cc2ncnc(Nc3ccc(F)c(Cl)c3)c2cc1NC(=O)/C=C/CN1CCCCC1 [DACOMITINIB ANHYDROUS] have Population Apoptotic (%) strictly under 40%?
Result string: 1.0

Query string: API: query returns whether the compound falls strictly under 40% in Population Apoptotic (%). Query: CN1CCC(=C2c3ccccc3CC(=O)c3sccc32)CC1.O=C(O)/C=C/C(=O)O [KETOTIFEN FUMARATE]
Result string: 0.0

Query string: Is it true that Population Apoptotic (%) reported for CCn1cc(-c2ccnc3[nH]c(-c4cccc(CN(C)C)c4)cc23)c(-c2ccc(NC(=O)N(C)C)cc2)n1 [GSK-1070916] is less than 40%?
Result string: 1.0

Query string: I'd appreciate it if you could check whether O=C1N/C(=N/c2ccccc2F)S/C1=C\c1ccc(C(=O)O)cc1 has Population Apoptotic (%) smaller than 40%.
Result string: 1.0

Query string: Here's an entry: CCc1cccc(CC)c1NC(=O)c1nn(C)c2c1CCc1cnc(Nc3ccc(N4CCN(C)CC4)cc3OC)nc1-2 . Is its Population Apoptotic (%) below 40%?
Result string: 0.0

Query string: Would you kindly verify if Population Apoptotic (%) of CN1C2CCC1CC(OC(c1ccc(F)cc1)c1ccc(F)cc1)C2.Cl (configuration not stated) is strictly less than 40%?
Result string: 0.0

Query string: Population Apoptotic (%) under 40%? Item: Cn1nc(C(F)(F)F)cc1-c1cnc(N2CCc3cc(S(=O)(=O)Nc4c(F)cc(Cl)cc4F)cc(N4CCCC4=O)c32)nc1 [TP-020]
Result string: 1.0

Query string: Record CN[C@@H]1C[C@H]2O[C@@](C)([C@@H]1OC)n1c3ccccc3c3c4c(c5c6ccccc6n2c5c31)C(=O)NC4 [STAUROSPORINE] : is its Population Apoptotic (%) strictly below 40%?
Result string: 0.0

Query string: Regarding CCOC(=O)c1c(C)[nH]c2ccc3c(c12)CN1CCc2cc(OC)ccc2C1O3 (configuration not stated) , kindly confirm whether its Population Apoptotic (%) is beneath 40%.
Result string: 0.0

Query string: Identify whether the compound O=C(Nc1ccc(Cl)cc1)Nc1cccc(-c2cccc(N3CCCC3)n2)c1 records Population Apoptotic (%) below 40%.
Result string: 0.0

Query string: Dear colleague, could you confirm whether Population Apoptotic (%) of CCc1cccc(CC)c1NC(=O)c1nn(C)c2c1CCc1cnc(Nc3ccc(C(=O)NC4CCN(C)CC4)cc3OC(F)(F)F)nc1-2 falls below 40%? Thanks.
Result string: 1.0

Query string: Consider COc1cccc2cc(-c3nc([C@H]4CC[C@H](C(=O)O)CC4)n4ncnc(N)c34)[nH]c12 [OSI-027] . Does its Population Apoptotic (%) lie strictly below 40%?
Result string: 0.0

Query string: Lab log: compare recorded Population Apoptotic (%) with 40%; is it strictly lower for CNc1cc(Oc2cc(C(=O)Nc3cc(N4CCN(C)CC4)cc(C(F)(F)F)c3)ccc2C)ncn1 ?
Result string: 1.0

Query string: Regarding O=C(Nc1ccc(-n2nc(-c3cccnc3)cc2C(F)(F)F)cn1)c1ccc(-c2ccccc2)c(F)c1 [BI 2049] , kindly confirm whether its Population Apoptotic (%) is beneath 40%.
Result string: 0.0

Query string: Below 40% on Population Apoptotic (%)? Entry Cc1cc(C)c(S(=O)(=O)N(Cc2ccc(-c3cccc(S(C)(=O)=O)c3)cc2)Cc2ccc(C(F)(F)F)o2)c(C)c1
Result string: 0.0

Query string: I'd appreciate it if you could check whether COc1cc(N2CCN(C)CC2)ccc1Nc1ncc2c(n1)N(C)c1ccccc1C(=O)N2C has Population Apoptotic (%) smaller than 40%.
Result string: 1.0
